Experiment: yeast transport mutant growth inhibition pilot in 384-well plates, post-Golgi transport modulator project (AID 636); note: test concentration not given here
Details: absorbance 615 nm, about 18 h, active compounds read high

>  <compound>
OCC12COC3c4ccccc4C(OC1)N32 (stereo unspecified)

>  <inhibition / %>
-5.47

$$$$
>  <compound>
COc1ccccc1OCCCn1cc(C(=O)c2ccco2)c2ccccc21

>  <inhibition / %>
-4.73

$$$$
>  <compound>
CCn1nc(-c2ccccc2)nc2c(=O)n(C)c(=O)nc1-2

>  <inhibition / %>
98.4

$$$$
>  <compound>
CCN1CCN(Cc2cc(Br)cc(OC)c2O)CC1

>  <inhibition / %>
-3.2

$$$$
>  <compound>
COC(=O)c1cncn1C(C)c1ccccc1 (stereo unspecified)

>  <inhibition / %>
-4.46

$$$$
>  <compound>
COc1ccccc1N1CCN(Cc2c(F)cccc2F)CC1

>  <inhibition / %>
-1.69

$$$$
>  <compound>
CCCNC(=O)c1c(N)n(Cc2ccc3c(c2)OCO3)c2nc3ccccc3nc12

>  <inhibition / %>
-3.2

$$$$
>  <compound>
O=C(C1CCCN(S(=O)(=O)c2cccc3nsnc23)C1)N1CCC2(CC1)OCCO2 (stereo unspecified)

>  <inhibition / %>
-5

$$$$
>  <compound>
CN1CCN(c2c[nH]c(=O)[nH]c2=O)CC1

>  <inhibition / %>
-7.53

$$$$
>  <compound>
O=c1[nH]c2ccccc2n1CCCN1CCC(n2c(=O)[nH]c3cc(Cl)ccc32)CC1

>  <inhibition / %>
-2.47

$$$$
>  <compound>
O=C1C2CCCN2C(c2ccc(Cl)c(Cl)c2)N1c1ccccn1 (stereo unspecified)

>  <inhibition / %>
-4.08

$$$$
>  <compound>
Cc1ccc(C2SCC(=O)Nc3c2c(=O)[nH]n3C2CCOC(C)(C)C2)cc1 (stereo unspecified)

>  <inhibition / %>
-5.66

$$$$
>  <compound>
CC(C)[C@H]1C(=O)N2CCC[C@H]2[C@]2(O)O[C@](NC(=O)[C@@H]3C=C4c5cccc6[nH]cc(c56)C[C@H]4N(C)C3)(C(C)C)C(=O)N12

>  <inhibition / %>
-0.78

$$$$
>  <compound>
CC(=O)[C@@]1(O)CC[C@H]2[C@@H]3CC=C4C[C@@H](O)CC[C@]4(C)[C@H]3CC[C@@]21C

>  <inhibition / %>
-0.26

$$$$
>  <compound>
c1ccc2c3c([nH]c2c1)CNCC3

>  <inhibition / %>
-1.17

$$$$
>  <compound>
Cn1c(=O)cc(OCC(=O)N2CCN(C3CCCCC3)CC2)c2ccccc21

>  <inhibition / %>
-1.47

$$$$
>  <compound>
COc1ccc(N2CCN(CCCN)CC2)cc1

>  <inhibition / %>
-0.91

$$$$
>  <compound>
CCOC(=O)c1cc2c(cn1)[nH]c1ccccc12

>  <inhibition / %>
-0.91

$$$$
>  <compound>
Cn1c(C(=O)N2CCC3(CC2)OCCO3)cc2c(=O)n(C)c3ccccc3c21

>  <inhibition / %>
-3.82

$$$$
>  <compound>
C[N+]1(C)CCN(c2ccccc2)CC1

>  <inhibition / %>
-1.69

$$$$
>  <compound>
CCC(=NCCCN1CCOCC1)c1c(O)n(Cc2ccccc2)c(=O)[nH]c1=O

>  <inhibition / %>
-5.41

$$$$
>  <compound>
O=C(O)Cn1cc(C(=O)c2ccccc2)c2ccccc21

>  <inhibition / %>
-7.07

$$$$
>  <compound>
CCOc1cccc(N2C(=O)CC(=O)NC2=O)c1

>  <inhibition / %>
-2.6

$$$$
>  <compound>
CP(C)(=O)CCC(=O)O

>  <inhibition / %>
-4.94

$$$$
>  <compound>
O=c1[nH]c(=O)n(Cc2ccco2)c(O)c1C=NCCCn1ccnc1

>  <inhibition / %>
0.77

$$$$
>  <compound>
O=C(c1ccc2nc(-c3ccco3)c(-c3ccco3)nc2c1)N1CCC2(CC1)OCCO2

>  <inhibition / %>
-4.87

$$$$
>  <compound>
CN(C)[C@@H]1C(=O)C(C(N)=O)=C(O)[C@@]2(O)C(=O)C3=C(O)c4c(O)cccc4[C@@](C)(O)[C@H]3[C@H](O)[C@@H]12

>  <inhibition / %>
0.52

$$$$
>  <compound>
CCCCCCn1c(O)c(C=NC2CCN(Cc3ccccc3)CC2)c(=O)[nH]c1=O

>  <inhibition / %>
-1.05

$$$$
>  <compound>
CCCC(C)(COC(N)=O)COC(=O)NC(C)C (stereo unspecified)

>  <inhibition / %>
-1.69

$$$$
>  <compound>
Cc1ccc2nc(N3CCN(C)CC3)[nH]c2c1

>  <inhibition / %>
1.64

$$$$
>  <compound>
CC(=O)N1CC(=O)Nc2ccc(Cl)cc2C1c1ccc(F)cc1 (stereo unspecified)

>  <inhibition / %>
-3.29

$$$$
>  <compound>
C=CCN1C(=O)C2(C(C(=O)OCC)=C(N)Oc3c2c(=O)oc2ccccc32)c2ccccc21 (stereo unspecified)

>  <inhibition / %>
0.27

$$$$
>  <compound>
O=C(CN1C(=O)CN=C(c2ccccc2)c2ccccc21)NCc1ccco1

>  <inhibition / %>
-3.42

$$$$
>  <compound>
C(#CCN1CCOCC1)COCC#Cc1ccccc1

>  <inhibition / %>
-5.41

$$$$
>  <compound>
COc1ccc(CN2CCN(C(=O)Cc3ccccc3)CC2)c(OC)c1

>  <inhibition / %>
-6.08

$$$$
>  <compound>
Cc1cnn(C2CCN(C)CC2)c1N

>  <inhibition / %>
0.14

$$$$
>  <compound>
CCCCOc1ccc(CN2CCN(CCO)CC2)cc1

>  <inhibition / %>
1.17

$$$$
>  <compound>
CCCCn1c(O)c(C(C)=NCCc2ccccc2)c(=O)[nH]c1=O

>  <inhibition / %>
-0.26

$$$$
>  <compound>
c1ccc(C2NCc3ccccc3-n3cccc32)cc1 (stereo unspecified)

>  <inhibition / %>
-4.53

$$$$
>  <compound>
CN1CCC(N(C)c2ncnc3ccc(Br)cc23)CC1

>  <inhibition / %>
-6.1

$$$$
>  <compound>
CCN1CCN(c2ncnc3ccc(Br)cc23)CC1

>  <inhibition / %>
-0.79

$$$$
>  <compound>
Cc1ccc(S(=O)(=O)Cc2ccc(C(=O)N3CCC4(CC3)OCCO4)o2)cc1

>  <inhibition / %>
7.37

$$$$
>  <compound>
O=c1[nH]c(=O)n(CCc2ccccc2)c(O)c1C=NCCN1CCNCC1

>  <inhibition / %>
-1.58

$$$$
>  <compound>
Cc1cc(N2C(=O)C3CCCN3C2c2cccc(Cl)c2)no1 (stereo unspecified)

>  <inhibition / %>
-0.13

$$$$
>  <compound>
CCOc1cc2[nH]c(=S)n(CCCC(=O)N3CCC4(CC3)OCCO4)c(=O)c2cc1OCC

>  <inhibition / %>
-4.59

$$$$
>  <compound>
CN1CC[C@@]23CCCC[C@@H]2[C@@H]1Cc1ccc(O)cc13

>  <inhibition / %>
-3.12

$$$$
